target: AcerOBP11m-Ile97 (Ile97Gly mutant) (Apis cerana, UniProt S5CRW7, I97G); test: Fluorescence competitive binding assay with 1-NPN, mutant AcerOBP11m-Ile97
Sequence (S5CRW7 1-142 I97G): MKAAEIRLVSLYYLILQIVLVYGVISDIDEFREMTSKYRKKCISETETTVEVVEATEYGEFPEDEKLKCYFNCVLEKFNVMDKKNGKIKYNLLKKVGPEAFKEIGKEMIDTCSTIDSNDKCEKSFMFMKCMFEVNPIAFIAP
Parameter Measured: Kd (nM)
Give your result in nM as a bare value.

Query (molecule): COC(=O)c1ccc(O)cc1 [HOB, methyl p-hydroxybenzoate] ; field requested: Kd 1480

----------
molecular target: AcerOBP11m-Ile140 (Ile140Gly mutant) (Apis cerana, UniProt S5CRW7, I140G); experiment: Fluorescence competitive binding assay with 1-NPN, mutant AcerOBP11m-Ile140; conditions: AcerOBP11m-Ile140, Table S4, mean ± SE; read-out: [IC50]
Sequence (S5CRW7 1-142 I140G): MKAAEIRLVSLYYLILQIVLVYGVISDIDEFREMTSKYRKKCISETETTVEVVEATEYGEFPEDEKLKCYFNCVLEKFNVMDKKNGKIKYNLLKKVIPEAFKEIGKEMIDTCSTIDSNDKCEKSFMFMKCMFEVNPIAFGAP
pIC50 values for the molecules below.
In simple prose, pIC50 is minus the logarithm base ten of a concentration in moles per litre.

{"Molecule": "CC(C)=CCC/C(C)=C/CC/C(C)=C/CO [Farnesol]", "Assay Target": "AcerOBP11m-Ile140 (Ile140Gly mutant) (Apis cerana, UniProt S5CRW7, I140G)", "pIC50": 4.70}
{"Molecule": "CC(=O)OCCC(C)C [Isoamyl acetate]", "Assay Target": "AcerOBP11m-Ile140 (Ile140Gly mutant) (Apis cerana, UniProt S5CRW7, I140G)", "pIC50": 4.89}

Could you now consider this next molecule?
Field request: pIC50 | item: C=CCc1ccc(OC)c(OC)c1 [4-Allylveratrole] 4.65

From: paper PMC5924804
